experiment: chemical genetic growth profiling, strain panel (AID 1159580);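 note: tested at 20 µM; growth read once vehicle control cultures reached saturation at 30 °C; 1 = growth at the plate median or of vehicle wells; lower values mean less growth of the strain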; settings: S. cerevisiae deletion strains, growth OD, locus YDR318W, strain mcm21, stronger effect = lower value
Among all 5,500 compounds or so, about 2,000 (36%) were called active. Not shown: some 18% with an inconclusive outcome. The list shows a part of the results.
measured-parameter: normalized growth
Number only, no unit.

# annotated cases, reported normalized growth shown
{"compound": "C[C@@H]1O[C@@H](OC[C@H]2OC(Oc3c(-c4ccc(O)c(O)c4)oc4cc(O)cc(O)c4c3=O)[C@H](O)[C@@H](O)[C@@H]2O)[C@H](O)[C@H](O)[C@H]1O (stereo partly drawn)", "normalized growth": 1}
{"compound": "CCCC(C)(COC(N)=O)COC(=O)NC(C)C (stereo not drawn)", "normalized growth": 0.979}
{"compound": "O=C(O[C@@H]1Cc2c(O)cc(O)cc2O[C@@H]1c1cc(O)c(=O)c2c(O)c(O)cc([C@H]3Oc4cc(O)cc(O)c4C[C@H]3OC(=O)c3cc(O)c(O)c(O)c3)c2c1)c1cc(O)c(O)c(O)c1", "normalized growth": 0.981}
{"compound": "C[C@]12CCC3c4ccc(O)cc4CCC3C1C[C@@H](O)[C@@H]2O (stereo partly drawn)", "normalized growth": 1}
{"compound": "O=c1cc(-c2ccc(O)cc2)oc2cc(O[C@@H]3O[C@H](CO)[C@@H](O)[C@H](O)[C@H]3O)cc(O)c12", "normalized growth": 0.986}
{"compound": "COc1ccc2c3c1OC1C(O)CC=C4C(C2)N(C)CCC431 (stereo not drawn)", "normalized growth": 1.02}
{"compound": "CC(C)[N+](C)(CCC(C(N)=O)(c1ccccc1)c1ccccc1)C(C)C", "normalized growth": 0.999}
{"compound": "CC(C)N(CCC(C(N)=O)(c1ccccc1)c1ccccn1)C(C)C (stereo not drawn)", "normalized growth": 0.998}

// sample CC(C1OC(C)(C)C(O)C1O)[C@@H]1CC[C@]2(C)C3=CCC4C(C)(C)C(=O)CC[C@]4(C)C3CC[C@@]12C (stereo partly drawn) , its normalized growth was 1

// sample `O=c1c(O)c(-c2ccc(O)cc2O)oc2cc(O)cc(O)c12` , its normalized growth was 1.01

// sample C[C@]12CCC3c4ccc(O)cc4CCC3C1CC[C@@H]2O (stereo partly drawn) , its normalized growth was 0.996

// sample CC(=O)OC1CN2CCC1CC2 (stereo not drawn) , its normalized growth was 1

// sample `COc1ccc(-c2oc3c(CC=C(C)C)c(O[C@@H]4O[C@H](CO)[C@@H](O)[C@H](O)[C@H]4O)cc(O)c3c(=O)c2O[C@@H]2O[C@@H](C)[C@H](O)[C@@H](O)[C@H]2O)cc1` , its normalized growth was 0.986

* * *

assay: chemical genetic growth profiling, strain panel (AID 1159580);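 note: tested at 20 µM; growth read once vehicle control cultures reached saturation at 30 °C; 1 = growth at the plate median or of vehicle wells; lower values mean less growth of the strain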; conditions: S. cerevisiae deletion strains, growth OD, locus YJL092W, strain hpr5, stronger effect = lower value
The whole screen tested about 5,500 compounds, of which about 2,000 (36%) were called active. Inconclusive results (about 18%) are left out. The list shows a part of the results.
measured-parameter: normalized growth
Number only, no unit.

# annotated cases, reported normalized growth shown
{"compound": "CC1(C)O[C@H]2CC(=O)OC[C@]23[C@H]2CC[C@@]4(C)[C@H](c5ccoc5)OC(=O)[C@H]5O[C@]54[C@]2(C)C(=O)C[C@@H]13", "normalized growth": 0.962}
{"compound": "O=c1c(O)c(-c2ccc(O)c(O)c2)oc2c(O[C@@H]3O[C@H](CO)[C@H](O)[C@@H](O)[C@H]3O)c(O)cc(O)c12", "normalized growth": 1.01}
{"compound": "CC1(C)C(=O)C=C[C@@]2(C)C1CC(=O)[C@]1(C)C2CC[C@@]2(C)[C@H](c3ccoc3)OC(=O)[C@H]3O[C@]321 (stereo partly specified)", "normalized growth": 0.971}
{"compound": "O=C(O[C@@H]1Cc2c(O)cc(O)cc2O[C@@H]1c1cc(O)c(=O)c2c(O)c(O)cc([C@H]3Oc4cc(O)cc(O)c4C[C@H]3OC(=O)c3cc(O)c(O)c(O)c3)c2c1)c1cc(O)c(O)c(O)c1", "normalized growth": 0.856}
{"compound": "CCOCN(C(=O)CCl)c1c(C)cccc1CC", "normalized growth": 0.985}

// sample CCC(N)C(O)c1ccc(O)c(O)c1 (stereo unspecified) , its normalized growth was 0.99

// sample `COc1ccc(-c2oc3cc(O[C@H]4O[C@H](CO)[C@@H](O)[C@H](O)[C@H]4O)c(OC)c(O)c3c(=O)c2OC)cc1O` , its normalized growth was 1

// sample `COc1ccc(Cl)cc1C(=O)NCCc1ccc(S(=O)(=O)NC(=O)NC2CCCCC2)cc1` , its normalized growth was 1

// sample `O=C1[O][Bi][O]c2ccccc21` , its normalized growth was 1.06

// sample `CC/C(=C(/CC)c1ccc(O)cc1)c1ccc(O)cc1` , its normalized growth was 1

// sample `COc1cc(O)c2c(=O)c(O)c(-c3ccc(O)c(O)c3)oc2c1` , its normalized growth was 0.885

// sample CC(CC(O)C1OC1(C)C)[C@@H]1CCC2(C)C3=CCC4C(C)(C)C(=O)CCC4(C)C3CC[C@@]12C (stereo partly specified) , its normalized growth was 1

// sample Cc1ccccc1OCC(O)CO (stereo unspecified) , its normalized growth was 0.99

// sample CCC(c1ccc(O)cc1)C(CC)c1ccc(O)cc1 (stereo unspecified) , its normalized growth was 0.967

// sample O=C1C=C2C(=CCOC2O)O1 (stereo unspecified) , its normalized growth was 0.744

// sample COC(=O)[C@]1(C)CCC[C@]2(C)c3ccc(C(C)C)cc3C(=O)CC12 (stereo partly specified) , its normalized growth was 0.946

* * *

The reader will find reported normalized growth values listed item by item below.
assay: chemical genetic growth profiling, strain panel (AID 1159580);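 note: tested at 20 µM; growth read once vehicle control cultures reached saturation at 30 °C; 1 = growth at the plate median or of vehicle wells; lower values mean less growth of the strain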; conditions: S. cerevisiae deletion strains, growth OD, locus YAL040C, strain CLN3, stronger effect = lower value
Hit rate of the full screen: of about 5,500 compounds, about 2,000 (36%) were called active. About 18% were inconclusive and are not listed. Some of the results follow.
Number only, no unit.

// sample `C=C(C)[C@H]1CN[C@H](C(=O)O)[C@H]1CC(=O)O` , its normalized growth was 1.02

// sample `N#C/C(=C\c1ccc(O)c(O)c1)C(=O)NCCc1ccccc1` , its normalized growth was 0.986

// sample `N#C/C(=C\c1ccc(O)c(O)c1)C(=O)c1ccc(O)c(O)c1` , its normalized growth was 1

// sample CN1CC(C(=O)NC2(C)OC3(O)C4CCCN4C(=O)C(Cc4ccccc4)N3C2=O)CC2c3cccc4[nH]cc(c34)CC21 (centres undefined) , its normalized growth was 0.995

* * *

assay: chemical genetic growth profiling, strain panel (AID 1159580);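 note: tested at 20 µM; growth read once vehicle control cultures reached saturation at 30 °C; 1 = growth at the plate median or of vehicle wells; lower values mean less growth of the strain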; details: S. cerevisiae deletion strains, growth OD, locus YLR268W, strain sec22
Among all 5,500 compounds or so, about 2,000 (36%) were called active. Not shown: some 18% with an inconclusive outcome. Cut-off read from the data, not from the text of the source: active = normalized growth mostly below about 0.91 (no sharp cut-off); inconclusive = no clear call, values can overlap the other calls; inactive = mostly above about 0.92. This is one part of the list.
Choose one outcome from this list and give only that: 1 (active), 0 (inactive)

# count of solved cases: 3
{"molecule": "Cc1cc(OC(=O)c2c(C)cc(OC(=O)c3c(C)cc(O)cc3O)cc2O)cc(O)c1C(=O)O", "assigned-label": 0}
{"molecule": "CC1=CC(=O)C2=C(C)CC[C@@H]3[C@H](OC(=O)[C@H]3C)[C@@H]12", "assigned-label": 0}
{"molecule": "O=c1c(O)c(-c2ccc(O)c(O)c2)oc2cc(O)cc(O)c12", "assigned-label": 0}

Task item: Per the assay record, what outcome was assigned to CCC(N)C(O)c1ccc(O)c(O)c1 (stereo unspecified) ?
Reply: 0

Task item: Per the assay record, what outcome was assigned to OCC(O)C(O)C(O)C(O)C(O)CO (stereo unspecified) ?
Reply: 0

Task item: Per the assay record, what outcome was assigned to `CCC(=O)c1c(O)cc(O)cc1O` ?
Reply: 0

Task item: Per the assay record, what outcome was assigned to `O=C(O[C@@H]1Cc2c(O)cc(O)cc2O[C@@H]1c1cc(O)c(=O)c2c(O)c(O)cc([C@H]3Oc4cc(O)cc(O)c4C[C@H]3OC(=O)c3cc(O)c(O)c(O)c3)c2c1)c1cc(O)c(O)c(O)c1` ?
Reply: 1

Task item: Per the assay record, what outcome was assigned to `COc1cc2occc2c2oc(=O)ccc12` ?
Reply: 0

Task item: Per the assay record, what outcome was assigned to `CN1C[C@H](C(=O)N[C@]2(C)O[C@@]3(O)[C@@H]4CCCN4C(=O)[C@H](Cc4ccccc4)N3C2=O)C[C@@H]2c3cccc4[nH]cc(c34)C[C@H]21` ?
Reply: 0

Task item: Per the assay record, what outcome was assigned to `COc1cc(OC)c2ccc(=O)oc2c1` ?
Reply: 0

Task item: Per the assay record, what outcome was assigned to CCCCCCC(C)OC(=O)COc1ccc(Cl)cc1Cl (stereo unspecified) ?
Reply: 0

Task item: Per the assay record, what outcome was assigned to NC(=O)NCCCC(N)C(=O)O (stereo unspecified) ?
Reply: 0

Task item: Per the assay record, what outcome was assigned to `NC(=O)c1ncn([C@@H]2O[C@H](CO)[C@@H](O)[C@H]2O)n1` ?
Reply: 0

Task item: Per the assay record, what outcome was assigned to `O=c1c(O)c(-c2ccc(O)cc2O)oc2cc(O)cc(O)c12` ?
Reply: 0
